Ref: PubChem BioAssay (NCI)

Tested on: MDA-MB-468 breast
Assay: NCI tumour cell line growth inhibition, 48 h
In this section we review reported TGI values for a set of molecules.
valueType: TGI (µM)

>>> print(df.to_string())
                                   molecule  valuetype  valuecomparator  measuredvalue
0                  c1ccc2nc(OCCN3CC3)ccc2c1        TGI                =           7.87
1  O=C(CCl)Nc1cc(O)c2c(c1)C(=O)c1cccc(O)c1C2=O        TGI                =           2.86
2  CC(C)(C)C(=O)OCc1nc2cc3c(cc2c(=O)[nH]1)CCC3=O        TGI                >            100
3    COc1cccc(-c2cc(=O)c3cc(Cl)cnc3[nH]2)c1        TGI                >            100
4  CCCn1c(N)c(C(=O)CNc2ccc(I)cc2)c(=O)[nH]c1=O        TGI                >            100
5  CC[C@H](NC(=O)[C@H](CS(=O)(=O)CC1CC1)N[C@@H](c1ccc(F)cc1)C(F)(F)F)C(=O)C(=O)NC1CC1        TGI                >            100
6  CC(=O)C1(O)Cc2c(O)c3c(c(O)c2C(OC2CC(N)C(O)C(C)O2)C1)C(=O)c1ccccc1C3=O (configuration not stated)        TGI                =         0.0398

###

Tested on: MDA-MB-468 breast
Assay: NCI tumour cell line growth inhibition, 48 h
Attribute: log10 TGI
valueType: log10 TGI (log10 of the value in µM)

                            structuresmiles  measuredvalue
0  CCCCOc1ccc(/C=N/Nc2cc(C)nc3ccc(Cl)cc23)cc1           0.47
1   Oc1c(CN2CCOCC2)cc(COCc2ccccc2)c2cccnc12           0.86
2  CC1(C)[C@@H](OC(N)=O)C=C[C@]2(C=O)[C@H]3CC[C@]4(C)[C@@H](c5ccc(=O)oc5)[C@@H](Cl)C[C@]4(O)C3=CC[C@@H]12          -1.79
3  CC(C)(C)Nc1nc2c(OCCc3ccccc3)cccn2c1-c1cccc(F)c1           1.36
4  CCOc1cc(C(C)(C)C)ccc1C1=N[C@@](C)(c2ccc(Cl)cc2)[C@@](C)(c2ccc(Cl)cc2)N1C(=O)N1CCN(CCS(C)(=O)=O)CC1           0.80
5  CCCCCCNC(=O)Oc1ccc(/C(=C(\C)c2ccccc2)c2ccc(OCCN(CC)CC)cc2)cc1           0.99
6    Oc1ccc(Cl)cc1-c1cc(-c2ccc(F)cc2)n[nH]1           0.73
7  CN1CCN(CCOc2ccc(-c3cnc4c(-c5ccc(F)cc5)cnn4c3)cc2)CC1           0.50

###

Tested on: MDA-MB-468 breast
Assay: NCI tumour cell line growth inhibition, 48 h
The reader will find reported GI50 values listed item by item below.

structureSmiles	assayedSystem	GI50
ClCC#CCSc1ncnc2c1ncn2CC#CCCl	MDA-MB-468 breast	1430 nM
COC(=O)[C@]12CC[C@@H](C)[C@H](C)[C@@H]1C1=CC[C@@H]3[C@@]4(C)CC(=O)[C@H](OC(=O)c5ccco5)[C@@]5(C)COC(=C45)C[C@@]3(C)[C@]1(C)CC2	MDA-MB-468 breast	420 nM
c1ccc2nc(OCCN3CC3)ccc2c1	MDA-MB-468 breast	2770 nM
CC(C)(C)C(=O)OCc1nc2cc3c(cc2c(=O)[nH]1)CCC3=O	MDA-MB-468 breast	> 100000 nM
CN(C)CCNc1nc2ccccc2c2c(=O)c3ccccc3sc12	MDA-MB-468 breast	1450 nM
C=CCCC(=O)N1C=CC(=O)[C@H](O)[C@@H]1/C=C/c1ccccc1	MDA-MB-468 breast	5120 nM
COc1cc(-c2nn(-c3ccc(NC(=O)c4cc(Cl)cc(Cl)c4)cc3)cc2-c2ccncc2)ccc1Cl	MDA-MB-468 breast	> 100000 nM
CN(C)CCCOc1c2ccc(Cl)cc2nc2c1oc1ccc(Cl)cc12	MDA-MB-468 breast	2120 nM
